Target: recombinant human HPK1 (Homo sapiens (Human))
Sequence (Q92918 whole entry): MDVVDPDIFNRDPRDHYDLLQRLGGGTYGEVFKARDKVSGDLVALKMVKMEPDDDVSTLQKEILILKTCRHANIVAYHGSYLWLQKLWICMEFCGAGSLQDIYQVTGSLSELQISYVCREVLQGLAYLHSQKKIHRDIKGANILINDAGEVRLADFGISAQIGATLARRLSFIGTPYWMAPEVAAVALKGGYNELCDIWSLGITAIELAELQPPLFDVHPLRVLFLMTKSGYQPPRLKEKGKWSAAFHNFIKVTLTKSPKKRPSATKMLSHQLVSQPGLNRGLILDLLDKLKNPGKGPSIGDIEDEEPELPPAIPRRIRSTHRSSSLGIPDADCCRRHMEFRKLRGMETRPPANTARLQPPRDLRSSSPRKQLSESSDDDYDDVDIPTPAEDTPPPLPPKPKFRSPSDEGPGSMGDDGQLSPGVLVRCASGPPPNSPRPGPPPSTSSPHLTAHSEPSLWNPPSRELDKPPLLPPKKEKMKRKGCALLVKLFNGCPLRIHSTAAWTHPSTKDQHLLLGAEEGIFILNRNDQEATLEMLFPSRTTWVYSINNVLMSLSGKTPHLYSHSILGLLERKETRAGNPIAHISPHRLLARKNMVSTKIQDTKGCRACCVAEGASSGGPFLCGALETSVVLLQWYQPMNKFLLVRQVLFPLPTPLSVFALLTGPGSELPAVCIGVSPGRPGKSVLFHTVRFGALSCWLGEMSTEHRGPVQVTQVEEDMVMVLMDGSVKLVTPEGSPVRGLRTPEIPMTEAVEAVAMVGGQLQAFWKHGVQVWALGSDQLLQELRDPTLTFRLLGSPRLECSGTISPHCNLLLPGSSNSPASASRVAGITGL
Assay: HPK1 kinase assay (ADP-Glo)
Conditions: 25 μM ATP, MBP substrate
Experimental: HPK1 kinase activity was measured by Promega's ADP-Glo™ kinase assay. […] Luminescence was detected after 30-min room temperature incubation with the Molecular device I3X plate reader. The IC50 values were calculated from a series of percent inhibition values determined at a range of inhibitor concentration using software routines as implemented in the GraphPad Prism 7 software and SigmaPlot13.0.
Reported property: IC50

// worked examples, IC50 included
> print(dat)
                                   molecule         measured
1  C#Cc1n[nH]c2cc(F)c(C)c(-c3ccn4nc(NC(=O)[C@@H]5C[C@@H]5F)cc4c3)c12           > 1 µM
2  COc1ccc2[nH]ncc2c1-c1ccn2nc(NC(=O)[C@@H]3C[C@@H]3F)cc2c1  0.101 to 0.5 µM

Read off the recorded IC50 for O=C(Nc1cc2cc(-c3c(Cl)c(F)c(Nc4ccncc4)c4[nH]ncc34)ccn2n1)[C@@H]1C[C@@H]1F
< 0.1 µM

Read off the recorded IC50 for O=C(Nc1nc2ccc(-c3cc(F)c(OC(F)(F)F)c4[nH]ncc34)cc2s1)[C@@H]1C[C@@H]1F
> 1 µM

Read off the recorded IC50 for CCN(CC)c1c(F)c(Cl)c(-c2ccc3nc(NC(=O)[C@@H]4C[C@@H]4F)cn3c2)c2cn[nH]c12
< 0.1 µM

Read off the recorded IC50 for O=C(Nc1cc2cc(-c3c(Cl)c(F)c(N4CCC(F)C4)c4[nH]ncc34)ccn2n1)[C@@H]1C[C@@H]1F (stereo partly shown)
< 0.1 µM

Read off the recorded IC50 for Cc1c(F)c(C(F)F)c2[nH]ncc2c1-c1ccn2nc(NC(=O)[C@@H]3C[C@@H]3F)cc2c1
< 0.1 µM

---

biological target: recombinant human HPK1 (Homo sapiens (Human)); experiment: HPK1 kinase assay (ADP-Glo); conditions: 25 μM ATP, MBP substrate
pIC50: −log10 of the molar value.
Entries annotated with measured pIC50

> print(dat)
                                   compound      measured
1  O=C(Nc1cc2cc(-c3c(Cl)c(F)c(Cl)c4[nH]ncc34)ccn2n1)[C@@H]1C[C@@H]1F        > 7.00
2  C[S+]([O-])c1c(F)c(Cl)c(-c2ccc3nc(NC(=O)[C@@H]4C[C@@H]4F)sc3n2)c2cn[nH]c12 (stereo partly shown)  6.30 to 7.00

Read off the recorded pIC50 for O=C(NCc1ccsc1)c1ccc2[nH]ncc2c1-c1ccc2nc(NC(=O)C3CC3)sc2c1
< 6.00

Read off the recorded pIC50 for CN(C)C(=O)c1c(F)cc(-c2ccc3nc(NC(=O)[C@@H]4C[C@@H]4F)cn3c2)c2cn[nH]c12
< 6.00

Read off the recorded pIC50 for CSc1c(F)c(Cl)c(-c2ccn3nc(NC(=O)[C@@H]4C[C@@H]4F)cc3c2)c2cn[nH]c12
> 7.00

Read off the recorded pIC50 for COc1c(F)c(Cl)c(-c2ccc3nc(NC(=O)[C@@H]4C[C@@H]4F)sc3c2)c2cn[nH]c12
> 7.00

Read off the recorded pIC50 for CSc1c(F)c(F)c2[nH]ncc2c1-c1ccn2nc(NC(=O)[C@@H]3C[C@@H]3F)cc2c1
> 7.00
